Consider the following sequences and their measured apparent KD of MS2 coat protein readings.
# Tested on: MS2 coat protein
# METHOD: apparent KD of MS2 coat protein, switch ON state; designed switch direction (-1 OFF switch, 1 ON switch): -1; higher = weaker reporter binding
# MEASUREMENT SETUP: FMN input: 0 or 200 uM; Eterna round: R93 (includes R88 designs)
Write down the numeric answer in µM and omit the unit.

// known answers, use as guide
AAAAAGUAAGGAUAUAGCAAAGGUCACGAAAGUGACAAAGGCUAGAAGGUACAUGAGGAUCACCCAUGUCCAAG [Mat - Exclusion 4 - Eli mod - D100] :: 0.0308
AAGAAGUGAGGAUAUACAUGAGGAUCACCCAUGUAAAAGAAAGAAGGGAAAGAGAAAAGUAGAAGGCACAAGAA [Usermaatre-setepenamun Osorkon III] :: 0.0285

# next sequence below
IN: What measured apparent KD of MS2 coat protein goes with GGAAAACAUGAGGAUCACCCAUGUAAGGAUAUGCAAAAGGAUAUAGAAGGAAAAAAAAGCAGAAGGUACAAAGG [salish99-ex1-21] ?
OUT: 0.0325

---

# Test system: K4 kissing-loop RNA reporter
# METHOD: apparent KD of K4 kissing-loop reporter; higher = weaker reporter binding
# MEASUREMENT SETUP: Eterna round: R107; input ligand: arginine 13.2 mM
REPORTED PROPERTY: apparent KD of K4 kissing-loop reporter (nM)
Write down the numeric answer in nM and omit the unit.

// known answers, use as guide
AGUCCACUCUAAAGAGUGGACCUAAGGGAUACCAGUGAUGUUGGUCACCCUUGGCAGCCCACUGUCAUCGAUAAAGAUGGCAGGA :: 112
CCUGAUCCUAGUGAUGUUAGGUCCAACGGCCGAGGACCGGUACGGCCGCCACUCGUCAAUUGGAAACAGCCCACGGGCACCGGGU [theeternabot_sameState_KL_Trp_A_19] :: 502
AUCUUGUUUGGAGGAUAUUCUUUAUUUGACAUAACCUUCUAUAAGGUGCAGUGAUGUUGCAAUAUAGGAGAAGGUCGAGUGAGAU [Exclusion FMN B GF 18] :: 160
AGCAGUGAUGUUGCUCAAUUUACAGGUGAUACCAGAGGUCAGUCUCUCCCUUGGCAGCACUUCAUACGAUGAUGUUUUAUCGGCC [theeternabot_sameState_KL_Theo_A_50] :: 321
ACUUGCACAAAGUCGUCAACCGGUGAAUCAAAGGAUAUUAAUUCACUAAGAAGGUUGAGCCGAGUGAUGUUCGACUGUAAGUCCC [theeternabot_exclusion_KL_FMN_A_34] :: 382

IN: Short answer please: apparent KD of K4 kissing-loop reporter, K4 kissing-loop RNA reporter, entry `GCCGUACGCAUGGAUACCAGCAAUUAUGCUCGUAUCCUAGUGAUGUUAGUGGCGAAUAUUUGCCCUUGGCAGCCAUGCGUACGGC`
OUT: 841

IN: Short answer please: apparent KD of K4 kissing-loop reporter, K4 kissing-loop RNA reporter, entry AGUACGGCAAACUUGCAACAAGCCGUACCACGAGGACCGGUACGGCCGCCACUCGAUAACUUGCAGUGAUGUUGCAAGUAAGAAU [(T)''-(K)'-(T)'-(T1)-(T2)-(K1)-(K2)_Design5]
OUT: 140

---

# Tested on: MS2 coat protein
# METHOD: apparent KD of MS2 coat protein; designed switch direction (-1 OFF switch, 1 ON switch): -1; higher = weaker reporter binding
# MEASUREMENT SETUP: input ligand: FMN 200 uM
Consider the following sequences and their measured apparent KD of MS2 coat protein readings.
Write down the numeric answer in nM and omit the unit.

AUCUGCACGCUGCGGUCCUACAUGAGGAUCACCCAUGUGGUCUGGUGGCGUGGGUCACCGGACUUGGCUCGUCUUGC [salish99_S_TOV1_R5_054] (Eterna round: R97, puzzle: Sensor, turn-off variant 1) :: 19.8

IN: What measured apparent KD of MS2 coat protein goes with CCUCCACAUGAGGAUCACCCAUGUCAGGAUAUCGUGUGCGCGUUUUCGGUCUUUCGCGCGAGAAGGGACGACUG (Eterna round: R96, puzzle: Exclusion 1) ?
OUT: 32

IN: What measured apparent KD of MS2 coat protein goes with CAGUACUGAGGAUAUACAUGAGGAUCACCCAUGUGUUCCAGCUAGGAAACUAGCAAGAGUAGAAGGCAGUACUG [salish99_ex3_r3_066] (Eterna round: R96, puzzle: Exclusion 3) ?
OUT: 543

IN: What measured apparent KD of MS2 coat protein goes with UUUUACAAGCUAAGAUCCUACAUGAGGAUCACCCAUGUGGUCCGGUGACGUGAGUCACCGGACUUAGCUCGUCUUGU [JL TOV1 3.70] (Eterna round: R97, puzzle: Sensor, turn-off variant 1) ?
OUT: 80.3

IN: What measured apparent KD of MS2 coat protein goes with UACGAAGAGUGAGGAUAUGUGCGACAAAGUUGCACAGAAGGCACAUGAGGAUCACCCAUGUGAGCUAGGUCGAAAGACCUAGCG [Omei Exc(NG)1 Av6] (Eterna round: R96, puzzle: Exclusion NG 1) ?
OUT: 37

---

# Tested on: MS2 coat protein
# METHOD: apparent KD of MS2 coat protein; designed switch direction (-1 OFF switch, 1 ON switch): -1; higher = weaker reporter binding
# MEASUREMENT SETUP: Eterna round: R95; input ligand: microRNA oligo, concentration not stated
Binning of apparent KD of MS2 coat protein into classes: lo = under 90 nM, mid = from 90 nM up to 200 nM, hi = 200 nM and over

CCGAGGUGGCGGUCCUAUGACAUGAGGAUCACCCAUGUACCUCGCCACGAGCCUUUUGCUCAUCUUAUAAUUCUCGG [Bienve] (puzzle: Sensor v3, turn-off variant 1) :: lo
AAAUACAAGUAAAGAUUCUACAUGAGGAUCACCCAUGUGCUCGUCUUAUAAAGUACUAUCACGAAAGUGAUAGUACA [Sensor 3, v1 - 26] (puzzle: Sensor v3, turn-off variant 1) :: mid
CAUGCUUCGGCAUGUACAAGCUUUUUGCUCGUCUUAUUAACAUGAGGAUCACCCAUGUUAAUGAGACCUCAUGUAUU [Sensor v3 - turn-off variant 2 - 8] (puzzle: Sensor v3, turn-off variant 2) :: lo
GUAAUUAUAUAGGAUAUCGAAUUUAUUAUUUAACGAGAAGGAUGAACAUGAGGAUCACCCAUGUGGUAUCAUGG [JL-ex6-3.04] (puzzle: Exclusion 6) :: mid
AGUAGAUCUACGCUUGCGUGGAUCUGCUAUGCAGGUGUUACAUGAGGAUCACCCAUGUCCUCGUUUGCUCGUCUUAU [JL turnoff v2 99.13] (puzzle: Sensor v3, turn-off variant 2) :: hi
GACUUCCGAGGAUAUACAUGAGGAUCACCCAUGUGCUUCAGCAUUUUUUGAUGCAUGGGUAGAAGGCGGUAGUU [LRO-Excl3-16] (puzzle: Exclusion 3) :: hi

IN: Any idea which band AGUACUAACACGAUAGUGUUAGUACUAUAAGCUUGUGUUACAUGAGGAUCACCCAUGUCCUCAUAAGCUCGUCUUAA [Mat - Sensor v3 - Turn-off var 2 - D65] (puzzle: Sensor v3, turn-off variant 2) is in?
OUT: hi

IN: Any idea which band UUGGAUAUCUAUGGGAGUAACAUGAGGAUCACCCAUGUAUGUCUUGUUUUUUGUUCGUCAUAGGCCAUUUGAUUGGA [JR_SV3TOV1_Sub025] (puzzle: Sensor v3, turn-off variant 1) is in?
OUT: mid

IN: Any idea which band CUUUUGUGAGGAUAUCAGGUGUGCUAGCGUACUGGUACAUCUGAGAAGGCACAUGAGGAUCACCCAUGUUUCUU [JL-ex4-3.19 Brourd mod] (puzzle: Exclusion 4) is in?
OUT: lo

---

# Test system: K4 kissing-loop RNA reporter;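 also: bound reporter read as fluorescence of individual clusters on recovered sequencing chips by microscopy, with normalized cluster intensities fitted with a binding model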
# METHOD: apparent KD of K4 kissing-loop reporter; higher = weaker reporter binding
# MEASUREMENT SETUP: Eterna round: R107; input ligand: tryptophan 2.4 mM
Kind request: treat 200 nM as inclusive, so apparent KD of K4 kissing-loop reporter at 200 nM or higher is Y, anything lower is N.

The following sequences have reported results that may help.
CGGCCCGGCGCGGCCGCCACUGUGCCUGGGCGCUUGCCGAGUGAUGUUCGUCGGCGGUCGGGUGGCAGGACCGGGCGCCGGUCCG [BDazzled - #26 SS Tryptophan B] :: N
CACCGGACGAAAGAUACCAGUUACUAUAUUAGGGUGCCUUGGCUAGUGAUGUUAGAGAGUAACCCUUGGCAGCUUUGGUACUUAU [theeternabot_exclusion_KL_Theo_B_21] :: Y
CAAAUAUGCGGUAGGUUCAAGCGCUGGGAAGGAGCGCAGAUGACUGCAGGUAGGUCGCCCAGUGAUGUUGGGCUUUCCACCUAUU [Edbeaan] :: N
AAACAACGUGACGAUACCAGCUUACUCGGCAAGCCAGUGAUGUUGGUGAAAAGGAGUCAAAGCCCUUGGCAGCGUCGAAGGUCUG [Georbeer] :: Y
AAUAAUGGAGUGAUGUUCCAGUAAUGGGAUACCAGACAUGAAAAUGUCCCUUGGCAGCUCAAAGGUCUAGUGAUGUUAGAAAGAA [KL-SSTheo-A5 #Double Kiss] :: Y

IN: Check if apparent KD of K4 kissing-loop reporter >= 200 nM (inclusive). Item: `AAAAUAAUCCAGUGAUGUUGGUAUGCAGAUACCAGCGACGAAAGUCGCCCUUGGCAGCUGUGGACGUACAAAAUAAGUACGUCCU`
OUT: Y

IN: Check if apparent KD of K4 kissing-loop reporter >= 200 nM (inclusive). Item: GGAUUGCCAGUGAUGUUGGCAUAAACUGAAGGAGCGCGUGAAAACGCAGGUAGGUCGCAGAACCUUGCCAACUAUAUUAUUUACC [Ex Arginine A K4 22]
OUT: N

Every entry's value here was drawn from the supplement of paper PMC9170038.
